Cited source: patent US20140221374A1

This listing pairs compounds with measured IC50.
Target: V600E-mutated B-RAF (Homo sapiens, UniProt P15056, V600E)
Sequence (P15056 whole entry V600E): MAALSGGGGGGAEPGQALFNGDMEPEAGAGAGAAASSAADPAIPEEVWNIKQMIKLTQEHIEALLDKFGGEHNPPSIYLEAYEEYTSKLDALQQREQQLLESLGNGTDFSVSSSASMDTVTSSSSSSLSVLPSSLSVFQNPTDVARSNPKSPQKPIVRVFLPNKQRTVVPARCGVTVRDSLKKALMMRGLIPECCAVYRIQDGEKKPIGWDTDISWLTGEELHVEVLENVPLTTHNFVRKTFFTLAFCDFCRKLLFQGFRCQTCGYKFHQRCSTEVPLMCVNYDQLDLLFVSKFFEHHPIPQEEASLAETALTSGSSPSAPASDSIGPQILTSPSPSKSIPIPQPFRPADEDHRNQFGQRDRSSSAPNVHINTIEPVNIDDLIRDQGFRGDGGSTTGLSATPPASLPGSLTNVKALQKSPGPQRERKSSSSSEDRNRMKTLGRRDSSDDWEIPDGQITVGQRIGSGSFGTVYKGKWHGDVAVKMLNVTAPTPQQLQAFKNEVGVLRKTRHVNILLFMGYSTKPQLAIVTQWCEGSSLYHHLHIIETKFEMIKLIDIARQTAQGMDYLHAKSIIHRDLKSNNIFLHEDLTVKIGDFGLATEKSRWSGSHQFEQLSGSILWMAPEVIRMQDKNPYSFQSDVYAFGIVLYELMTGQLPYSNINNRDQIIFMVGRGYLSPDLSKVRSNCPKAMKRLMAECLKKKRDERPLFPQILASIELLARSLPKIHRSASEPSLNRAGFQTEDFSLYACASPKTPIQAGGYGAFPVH
Assay: In vitro assay for inhibition of mutant B-RAF kinase (recombinant V600E-mutated B-RAF, MEK (K97R) substrate)
Type: biochemical
Conditions: 10 nM recombinant V600E-mutated B-RAF

A selection of reference data follows.
>  <sample_smiles>
CC(C)(C)c1nc(-c2ccncc2)c(-c2cccc(NS(=O)(=O)c3c(F)cccc3F)c2)s1

>  <experimental_system>
V600E-mutated B-RAF (Homo sapiens, UniProt P15056, V600E)

>  <IC50>
0.1 to 1 µM

$$$$
>  <sample_smiles>
Cc1nc(-c2ccnc(N)c2)c(-c2cccc(NC(=O)Nc3ccc(C(F)(F)F)cc3)c2)s1

>  <experimental_system>
V600E-mutated B-RAF (Homo sapiens, UniProt P15056, V600E)

>  <IC50>
≤ 0.1 µM

$$$$
>  <sample_smiles>
CCn1cc(-c2cccc(N3CCN(c4ccc(C(F)(F)F)cc4)C3=O)c2)c(-c2ccncc2)n1

>  <experimental_system>
V600E-mutated B-RAF (Homo sapiens, UniProt P15056, V600E)

>  <IC50>
≤ 0.1 µM

$$$$

Record `Cc1nc(-c2ccnc(N)c2)c(-c2cccc(NC(=O)Nc3ccc(Cl)cc3)c2F)s1` / V600E-mutated B-RAF (Homo sapiens, UniProt P15056, V600E), IC50 recorded as 0.1 to 1 µM

Record `Cc1nc(-c2ccncc2)c(-c2cccc(NC(=O)Nc3ccc(F)cc3)c2)s1` / V600E-mutated B-RAF (Homo sapiens, UniProt P15056, V600E), IC50 recorded as 0.1 to 1 µM

Record `Cc1nc(-c2ccnc(N)c2)c(-c2cccc(NC(=O)Nc3ccc(C(F)(F)F)cc3)c2F)s1` / V600E-mutated B-RAF (Homo sapiens, UniProt P15056, V600E), IC50 recorded as 0.1 to 1 µM

Record `CCn1cc(-c2cccc(N(O)C(=O)Nc3ccc(C(F)(F)F)cc3)c2)c(-c2ccncc2)n1` / V600E-mutated B-RAF (Homo sapiens, UniProt P15056, V600E), IC50 recorded as ≤ 0.1 µM

Record `CCn1cc(-c2cccc(NC(=O)Nc3ccc(S(=O)(=O)CC)cc3)c2)c(-c2ccncc2)n1` / V600E-mutated B-RAF (Homo sapiens, UniProt P15056, V600E), IC50 recorded as ≤ 0.1 µM

* * *

Target: V600E-mutated B-RAF (Homo sapiens, UniProt P15056, V600E)
Assay: In vitro assay for inhibition of mutant B-RAF kinase (recombinant V600E-mutated B-RAF, MEK (K97R) substrate)
Assay type: biochemical
Conditions: 10 nM recombinant V600E-mutated B-RAF
Experimental: The ability of compounds described herein to inhibit RAF kinase activity were determined from biochemical kinase inhibition assays using recombinant RAF proteins as known in the art. […]
This listing pairs compounds with measured IC50.

>  <compound>
Nc1nc(-c2ccncc2)c(-c2ccc(F)c(NC(=O)Nc3ccc(Cl)cc3)c2)s1 [Example 40]

>  <IC50>
≤ 0.1 µM

$$$$
>  <compound>
Cc1ccc(NC(=O)Nc2cccc(-c3sc(C(C)(C)C)nc3-c3ccnc(NCCO)c3)c2)cc1 [Example 29]

>  <IC50>
≤ 0.1 µM

$$$$
>  <compound>
Cc1ccc(NC(=O)Nc2ccc(F)c(-c3sc(C)nc3-c3ccncc3)c2)cc1 [Example 8]

>  <IC50>
≤ 0.1 µM

$$$$

Reported IC50 of COCCNc1cc(-c2nc(C(C)(C)C)sc2-c2cccc(NC(=O)Nc3ccc(C)cc3)c2)ccn1 [Example 28] : 1 to 10 µM

Reported IC50 of Cc1nc(-c2ccncc2)c(-c2cccc(NC(=O)Nc3ccc(Cl)cc3)c2)s1 [Example 3] : ≤ 0.1 µM

* * *

This listing pairs molecules with measured IC50.
Target: V600E-mutated B-RAF (Homo sapiens, UniProt P15056, V600E)
Assay: In vitro assay for inhibition of mutant B-RAF kinase (recombinant V600E-mutated B-RAF, MEK (K97R) substrate)
Type: biochemical
Conditions: 10 nM recombinant V600E-mutated B-RAF
Method: The ability of compounds described herein to inhibit RAF kinase activity were determined from biochemical kinase inhibition assays using recombinant RAF proteins as known in the art. […]

A selection of reference data follows.
>  <sample_smiles>
CCn1cc(-c2cccc(NC(=O)Nc3ccc(OC)cc3)c2)c(-c2ccncc2)n1

>  <IC50>
≤ 0.1 µM

$$$$
>  <sample_smiles>
CCn1cc(-c2cccc(NC(=O)Nc3ccc(S(=O)(=O)N4CCOCC4)cc3)c2)c(-c2ccncc2)n1

>  <IC50>
≤ 0.1 µM

$$$$
>  <sample_smiles>
Cc1nc(-c2ccncc2)c(-c2cccc(NC(=O)Nc3ccc(C(F)(F)F)cc3)c2F)s1

>  <IC50>
0.1 to 1 µM

$$$$
>  <sample_smiles>
Cc1nc(-c2ccncc2)c(-c2ccc(F)c(NC(=O)Nc3cccc(C(F)(F)F)c3)c2)s1

>  <IC50>
≤ 0.1 µM

$$$$
>  <sample_smiles>
Cc1nc(-c2ccnc(N)c2)c(-c2cccc(NS(=O)(=O)c3c(F)cccc3F)c2)s1

>  <IC50>
1 to 10 µM

$$$$

Reported IC50 of `Nc1nc(-c2ccncc2)c(-c2cccc(NC(=O)Nc3ccc(Cl)cc3)c2F)s1` : 1 to 10 µM

Reported IC50 of `O=C(Nc1ccc(Cl)cc1)Nc1cccc(-c2sc(NCCN3CCOCC3)nc2-c2ccncc2)c1` : ≤ 0.1 µM

Reported IC50 of `CCn1cc(-c2cccc(NC(=O)Nc3ccc(C(F)(F)F)cc3)c2)c(-c2ccncc2)n1` : ≤ 0.1 µM

Reported IC50 of `Cc1nc(-c2ccncc2)c(-c2cccc(NS(=O)(=O)c3c(F)cccc3F)c2)s1` : 0.1 to 1 µM
